# credit: patent US5747535A

Test: Test 2: Pharmacokinetic test in rats
Assay type: in vivo, rat
Settings: rat, blood, po, 15 mg/kg, Rat-3, oral 15 mg/kg, 45 min; read-out: Blood concentration
parameter: concentration at 0.75 h (ng/mL)
Report the value in ng/mL with no unit label.

Sample CN(C(=O)[C@H](Cc1ccc(C(=N)NN)cc1)NS(=O)(=O)c1ccc2ccccc2c1)C1CCCC1 [Example 1] ; concentration at 0.75 h observed: 112

---

Experiment: Test 2: Pharmacokinetic test in dogs
Format: in vivo, dog
Settings: dog, blood, po, 10 mg/kg, Dog-1, oral 10 mg/kg, 120 min; read-out: Blood concentration
parameter: concentration at 2 h
Give your result as the value with the unit written after it.

The recorded concentration at 2 h for entry `CN(C(=O)[C@H](Cc1ccc(C(=N)NN)cc1)NS(=O)(=O)c1ccc2ccccc2c1)C1CCCC1` equals 774 ng/mL
